Task for the reader: assign each of the following molecules its reported IC50.
- TARGET OR TEST SYSTEM: Virion infectivity factor (Human immunodeficiency virus type 1 group M subtype B (isolate BH10)) + Virion infectivity factor (Human immunodeficiency virus type 1 group M subtype B (isolate BRU/LAI)) + Virion infectivity factor (Human immunodeficiency virus type 1 group M subtype B (isolate PCV12)) + Virion infectivity factor (Human immunodeficiency virus type 1 group M subtype B (isolate HXB2)) + DNA dC->dU-editing enzyme APOBEC-3G (Homo sapiens) (UniProt P69720+P69721+P69722+P69723+Q9HC16)
- PROCEDURE SUMMARY: HIV-1 Vif–A3G interaction blockers – biochemical, TR-FRET, GST-Vif 1-94, biotin-A3G peptide, dose response retest, primary screen (AID 1117319);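 note: Vif residues 1-94 fused to GST binding biotinylated APOBEC3G peptide 110-148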
- TEST CONTEXT: TR-FRET GST-Vif / biotin-A3G peptide binding
Records with an inconclusive call do not appear.

Batch lookup, IC50 per entry.
1. Cc1ccc(C)n1-c1ccc(C(=O)O)cc1
2. Cc1ccc(-c2nc3s/c(=C\c4ccco4)c(=O)n3n2)cc1
3. CCOc1cc(N2CCOCC2)c(OCC)cc1NC(=O)CSc1ncn[nH]1
4. COC(=O)C1=C(C)NC(=O)/C1=C\c1ccco1
5. O=[N+]([O-])c1cc(-c2ccc(/C=N/c3nc4ccccn4c3-c3ccco3)o2)ccc1Cl
6. O=C(O)/C=C/C(=O)Nc1cccnc1

Solution:
5.12 µM
27.6 µM
11.9 µM
6.12 µM
10 µM
62.9 µM

====

Would you kindly list IC50 for each of these compounds?
- TARGET OR TEST SYSTEM: Virion infectivity factor (Human immunodeficiency virus type 1 group M subtype B (isolate BH10)) + Virion infectivity factor (Human immunodeficiency virus type 1 group M subtype B (isolate BRU/LAI)) + Virion infectivity factor (Human immunodeficiency virus type 1 group M subtype B (isolate PCV12)) + Virion infectivity factor (Human immunodeficiency virus type 1 group M subtype B (isolate HXB2)) + DNA dC->dU-editing enzyme APOBEC-3G (Homo sapiens) (UniProt P69720+P69721+P69722+P69723+Q9HC16)
- PROCEDURE SUMMARY: HIV-1 Vif–A3G interaction blockers – biochemical, TR-FRET, GST-Vif 1-94, biotin-A3G peptide, dose response retest, primary screen (AID 1117319);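 note: Vif residues 1-94 fused to GST binding biotinylated APOBEC3G peptide 110-148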
- TEST CONTEXT: TR-FRET GST-Vif / biotin-A3G peptide binding
Inconclusive results are not listed.

Please review the entries below; each comes with its answer.
compound=CC(=O)c1cccc(NC(=O)c2cnn3ccccc23)c1 result_type=IC50 obs_value="77.6 µM"
compound=N=C1C=CC(=C(c2ccc(N)cc2)c2ccc(N)cc2)C=C1 result_type=IC50 obs_value="3.43 µM"
compound=Cc1cc(C)c(C(=O)/C=C/c2ccco2)c(=O)[nH]1 result_type=IC50 obs_value="8.81 µM"
compound=COc1ccc2c3c(cccc13)N(C)N=C2C result_type=IC50 obs_value="4.23 µM"
compound=O=c1c(O)cccc2cc(O)c(O)c(O)c12 result_type=IC50 obs_value="1.03 µM"

For every item below, please supply its IC50.
1. O=C1CCCC(O)=C1N=Nc1cccc(C(=O)O)c1
2. CC(/C=C/c1ccco1)=N\NC(=O)c1cccnc1
3. CCN(CC(=O)Nc1c(C(=O)OC)[nH]c2ccccc12)c1ccc2c(c1)OCO2
4. CCc1cccc(NC(=O)CCS(=O)(=O)c2ccc(Br)cc2)c1
5. O=C1C2CCCN2C(c2cccs2)N1c1ccccn1 (stereo unspecified)
6. C(=C\c1ccco1)/c1ccc2ccccc2n1
7. O=C(Cn1cnc2c(nnn2Cc2ccc(F)cc2)c1=O)NCc1ccco1

Solution:
1. 5.61 µM
2. 20.3 µM
3. 5.84 µM
4. 14.7 µM
5. 82 µM
6. 5.09 µM
7. 94.6 µM

I have 6 compounds here; please give me IC50 for each one.
1. COc1ccc(N2C3=C(CC4=C2CCCC4=O)C(=O)CCC3)cc1
2. CC[n+]1ccc(C)c2cc(P(=O)(c3ccccc3)c3ccccc3)ccc21
3. Cc1cccc2cc(-c3ccccc3)c(-c3ccccc3)c[n+]12
4. CCN(CC)Cc1cc(O)c(CN(CC)CC)cc1O
5. CCOc1ccc(CNc2ccc(N3CCCC3)cc2)cc1
6. O=C(Nc1cccc(C(F)(F)F)c1)c1ccc2nc(-c3ccco3)c(-c3ccco3)nc2c1

Solution:
1. 26.3 µM
2. 3.93 µM
3. 6.83 µM
4. 10.8 µM
5. 6.59 µM
6. 0.69 µM

List IC50 for every entry below, keeping the order given.
1. CS(=O)(=O)c1ccc2c(c1)SC1=NC(=O)/C(=C/c3ccco3)C(=N)N12
2. COc1nc(N(c2ccccc2)c2ccccc2)nc(-n2ccnc2)n1
3. O=C1NC(c2cccc(Br)c2)=N/C1=C\c1ccco1
4. O=C(N/N=C/C=C\c1ccco1)c1cccnc1
5. CCOC(=O)C(C)N1C(=O)S/C(=C\c2ccc(-c3ccccc3C(=O)O)o2)C1=O (stereo unspecified)
6. COc1ccc(/C=N\NC(=O)c2cc(O)c(O)c(O)c2)cc1CN1CCN(c2ccc(F)cc2)CC1
7. CCCOc1ccc(Cc2nn3c(=O)/c(=C/c4ccco4)sc3nc2=O)cc1
8. COc1cc(NC(=O)c2noc3c2CCC3)c(OC)cc1Cl

Solution:
["6.32 µM", "26.3 µM", "9.01 µM", "4.09 µM", "10.8 µM", "< 2.47 µM", "1.5 µM", "15.8 µM"]

List IC50 for every entry below, keeping the order given.
1. CCOc1cc(N2CCOCC2)c(OCC)cc1NC(C)C(=O)N1CCN(CC)CC1 (stereo unspecified)
2. c1coc(-c2nc3nc4ccccc4n3nc2-c2ccco2)c1
3. CN(CCO)c1cc(Sc2nc3ccccc3s2)c2nonc2c1[N+](=O)[O-]
4. CC1(C)CCCN(C(=O)c2coc(=O)c(Br)c2)C1
5. CCc1ccccc1N(CC(=O)NCCSCc1ccco1)S(C)(=O)=O

Solution:
["23.9 µM", "12.3 µM", "42.6 µM", "3.54 µM", "78.4 µM"]

Each compound below has a recorded value; state its IC50.
1. CC(=O)N(\C=C/C=C/C=C1\Sc2ccccc2C1=O)c1ccccc1
2. O=C(CSc1nnnn1-c1ccccc1)Nc1ncc2c(n1)CC(c1ccco1)CC2=O (stereo unspecified)
3. COc1cccc(C2C(C#N)=C(N)OC3=C2C(=O)CC(c2ccco2)C3)c1OCc1ccc(F)cc1 (stereo unspecified)
4. Cc1c(C(=O)N2CCN(c3ccccc3F)CC2)sc2nc(-c3ccccc3)cn12
5. O=C1/C(=C/c2ccco2)SC(=S)N1c1cccnc1

Solution:
1. 5.47 µM
2. 12.6 µM
3. 7.82 µM
4. 93 µM
5. 1.49 µM

// each compound listed below needs its IC50
1. Cn1cccc1/C=C1/C(=O)NC(=O)N(Cc2ccc(F)cc2)C1=O
2. O=C(N/N=C/c1cccnc1)c1cc(O)c(O)c(O)c1
3. Cc1ccc(NC(=O)CCCCCC2NC(=O)NC2C)cc1 (stereo unspecified)
4. CCOc1ccccc1NC(=O)CCS(=O)(=O)c1ccc(Br)cc1
5. Cc1ccc(C)n1-c1ccc(-c2nnc3n2CCCCC3)s1
6. COc1cc(C(=O)NCc2nnc(SCC(=O)Nc3nc4ccc(C)cc4s3)o2)cc(OC)c1OC

Solution:
1. 8.76 µM
2. 21.7 µM
3. 0.71 µM
4. 7.52 µM
5. 8.58 µM
6. 45.3 µM

Dear colleague, could you please provide IC50 for the compounds listed below?
1. CC1(OC(=O)C2CCCC2)C(=O)C=C2C=C(c3ccsc3)OC=C2C1=O (stereo unspecified)
2. O=C(NN(C(=O)c1ccccc1)c1ccccc1)c1ccccc1
3. Cc1nc2nc(C)c(CCC(=O)N3CCN(c4ccccc4)CC3)c(C)n2n1
4. O=C(CCS(=O)(=O)c1ccc(Br)cc1)NC1CCCC1

Solution:
1: 8.75 µM; 2: 70.7 µM; 3: 59.5 µM; 4: 20.5 µM
